- Species on record: Homo sapiens
- assayName: Ratio of Ki for human adenosine A2A receptor to Ki for human adenosine A3 receptor
readoutLabel: Ratio Ki

> print(dat)
                                   compound  observedvalue
1  C=CCN1C(=O)N2CC(CC)N=C2c2[nH]c(-c3cc(C)n(C)n3)nc21 (racemic)            330
2  Cc1cc(-c2nc3c([nH]2)C2=NC(C)CN2C(=O)N3Cc2ccccc2)nn1C (stereo not given)            330

[P] CCC1CN2C(=O)N(Cc3ccccc3)c3nc(-c4cc(C)n(C)n4)[nH]c3C2=N1 (racemic)
[Q] C=CCN1C(=O)N2CC(C)N=C2c2[nH]c(-c3cc(OC)nn3C)nc21 (racemic)
IN: Which gives the smaller Ratio Ki number: P or Q ? Your answer should be the label attached to the chosen record.
OUT: P
(P: 330, Q: 2100)
